Biological target: T1, human C5 (human, UniProt P01031 19-673; P01031 678-1676, Beta and alpha chains are disulfide-linked and the protein is glycosylated.)
T1 construct: Either in-house recombinant C5 or plasma derived C5 (CALBIOCHEM) was used; also called recombinant human C5; plasma derived human C5
Test: Biacore, captured antibody, pH 7.4, 37 C;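 further: biacore binding response of anti-C5 antibody light chain variants captured on chip with human C5 injected, ACES running buffer containing 1.2 mM CaCl₂, parent light chain antibody set to 100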
The label depends only on % binding (parent = 100): class 1 if it is at least 50%, class 0 if it is smaller.

1. CFP0017 17L 94T (antibody, V domains shown) VH: QVQLVQSGAEVKKPGSSVKVSCKASGGTFSSYAISWVRQAPGQGLEWMGGIIPIFGTANYAQKFQGRVTITADESTSTAYMELSSLRSEDTAVYYCARGGWWGGALDYWGQGTLVTVSS VL: DIQMTQSPSSLSASVGDRVTITCRASQSIEDDLAWYQQKPGKAPKLLIYHASSLQSGVPSRFSGSGSGTDFTLTISSLQPEDFATYYCQQSDSTPLTFGQGTKVEIK ... class 0
2. CFP0018 18L 92S (antibody, V domains shown) VH: QVQLVQSGAEVKKPGSSVKVSCKASGGTFSSYAISWVRQAPGQGLEWMGGIIPIFGTANYAQKFQGRVTITADESTSTAYMELSSLRSEDTAVYYCARQLYGYYELDIWGQGTLVTVSS VL: DIQMTQSPSSLSASVGDRVTITCRASQSISDDLAWYQQKPGKAPKLLIYEASSLQSGVPSRFSGSGSGTDFTLTISSLQPEDFATYYCQQYSSYPLTFGQGTKVEIK ... class 1
3. CFP0021 21L 53H (antibody, V domains shown) VH: QVQLVESGGGLVQPGGSLRLSCAASGFTFSDHYMDWVRQAPGKGLEWVGRTRNKANSYTTEYAASVKGRFTISRDDSKNSLYLQMNSLKTEDTAVYYCARTGMMYWGIFDVWGQGTLVTVSS VL: DIQMTQSPSSLSASVGDRVTITCRASQSIEDDLAWYQQKPGKAPKLLIYHASHLQSGVPSRFSGSGSGTDFTLTISSLQPEDFATYYCQQHDSYPLTFGQGTKVEIK ... class 1
4. CFP0021 21L 50E (antibody, V domains shown) VH: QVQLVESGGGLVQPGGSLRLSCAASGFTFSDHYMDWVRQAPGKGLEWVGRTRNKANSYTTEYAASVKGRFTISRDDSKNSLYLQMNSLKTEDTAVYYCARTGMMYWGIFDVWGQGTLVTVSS VL: DIQMTQSPSSLSASVGDRVTITCRASQSIEDDLAWYQQKPGKAPKLLIYEASTLQSGVPSRFSGSGSGTDFTLTISSLQPEDFATYYCQQHDSYPLTFGQGTKVEIK ... class 0
5. CFP0017 17L 30D (antibody, V domains shown) VH: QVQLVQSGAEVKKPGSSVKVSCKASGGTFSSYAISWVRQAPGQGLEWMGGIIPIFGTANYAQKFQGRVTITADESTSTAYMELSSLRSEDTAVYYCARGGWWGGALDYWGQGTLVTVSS VL: DIQMTQSPSSLSASVGDRVTITCRASQSIDDDLAWYQQKPGKAPKLLIYHASSLQSGVPSRFSGSGSGTDFTLTISSLQPEDFATYYCQQSDSYPLTFGQGTKVEIK ... class 1
6. CFP0011 11L 96F (antibody, V domains shown) VH: QVQLVQSGAEVKKPGSSVKVSCKASGGTFSSYAISWVRQAPGQGLEWMGGIIPIFGTANYAQKFQGRVTITADESTSTAYMELSSLRSEDTAVYYCARDMSEFLGWSNYYSYPMDVWGQGTTVTVSS VL: DIQMTQSPSSLSASVGDRVTITCRASQSIEDDLAWYQQKPGKAPKLLIYHASSLQSGVPSRFSGSGSGTDFTLTISSLQPEDFATYYCQQSDNSPFTFGQGTKVEIK ... class 1
7. CFP0018 18L 30T (antibody, V domains shown) VH: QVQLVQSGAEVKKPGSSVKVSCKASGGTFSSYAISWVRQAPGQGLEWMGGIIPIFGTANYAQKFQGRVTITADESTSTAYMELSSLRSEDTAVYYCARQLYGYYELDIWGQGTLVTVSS VL: DIQMTQSPSSLSASVGDRVTITCRASQSITDDLAWYQQKPGKAPKLLIYEASSLQSGVPSRFSGSGSGTDFTLTISSLQPEDFATYYCQQYNSYPLTFGQGTKVEIK ... class 1
8. CFP0021 21L 94H (antibody, V domains shown) VH: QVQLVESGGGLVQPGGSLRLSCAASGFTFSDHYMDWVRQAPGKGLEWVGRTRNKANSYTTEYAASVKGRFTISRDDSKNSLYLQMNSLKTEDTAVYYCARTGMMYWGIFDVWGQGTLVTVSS VL: DIQMTQSPSSLSASVGDRVTITCRASQSIEDDLAWYQQKPGKAPKLLIYHASTLQSGVPSRFSGSGSGTDFTLTISSLQPEDFATYYCQQHDSHPLTFGQGTKVEIK ... class 0
